Hey, just so you know, these numbers are from patent US12312605B2.

- Test system: iPS cells (201B7 strain)
- procedure_text: Effective concentration of RFV derivatives: iPS cell growth in medium refrigerated for 2 weeks
- Type: cell-based
- Set-up: key: X; not grown; ◯; cell grown
- applied_conditions: 1.52 μM (259 mol % vs DMEM/F-12); Fe2+ and Zn2+ 25 mol %; Essential 8 supplement; medium refrigerated 2 weeks
Structures can show the parent of a compound that is named as a salt.
property_measured: cell growth

Cc1cc2nc3c(=O)[nH]c(=O)nc-3n(C[C@H](O)[C@H](O)[C@H](O)COP(=O)(O)O)c2cc1C [FMN, Riboflavin 5′-Monophosphate Sodium Salt] | X
CCCC(=O)OC[C@@H](OC(=O)CCC)[C@@H](OC(=O)CCC)[C@H](Cn1c2nc(=O)[nH]c(=O)c-2nc2cc(C)c(C)cc21)OC(=O)CCC [RTB, Riboflavin Tetrabutyrate] | X
Cc1cc2nc3c(=O)[nH]c(=O)nc-3n(C[C@H](O)[C@H](O)[C@H](O)COP(=O)(O)OP(=O)(O)OC[C@H]3O[C@@H](n4cnc5c(N)ncnc54)[C@H](O)[C@@H]3O)c2cc1C [FAD, Disodium Salt Hydrate] | ◯
Cc1cc2nc3c(=O)[nH]c(=O)nc-3n(C[C@H](O)[C@H](O)[C@H](O)CO)c2cc1C | X

* * *

- System: iPS cells (201B7 strain)
- procedure_text: Effective concentration of RFV derivatives: iPS cell growth in medium refrigerated for 2 weeks
- Format: cell-based
- Set-up: key: X; not grown; ◯; cell grown
- applied_conditions: 0.47 μM (80 mol % vs DMEM/F-12); Fe2+ and Zn2+ 100 mol %; TeSR2 supplement; medium refrigerated 2 weeks; Example 5
Where a name gives a salt, the structure may show the parent alone.
property_measured: cell growth

Cc1cc2nc3c(=O)[nH]c(=O)nc-3n(C[C@H](O)[C@H](O)[C@H](O)COP(=O)(O)OP(=O)(O)OC[C@H]3O[C@@H](n4cnc5c(N)ncnc54)[C@H](O)[C@@H]3O)c2cc1C [FAD, Disodium Salt Hydrate] | ◯
Cc1cc2nc3c(=O)[nH]c(=O)nc-3n(C[C@H](O)[C@H](O)[C@H](O)CO)c2cc1C | ◯
CCCC(=O)OC[C@@H](OC(=O)CCC)[C@@H](OC(=O)CCC)[C@H](Cn1c2nc(=O)[nH]c(=O)c-2nc2cc(C)c(C)cc21)OC(=O)CCC [RTB, Riboflavin Tetrabutyrate] | ◯
Cc1cc2nc3c(=O)[nH]c(=O)nc-3n(C[C@H](O)[C@H](O)[C@H](O)COP(=O)(O)O)c2cc1C [FMN, Riboflavin 5′-Monophosphate Sodium Salt] | ◯

* * *

- System: iPS cells (201B7 strain)
- procedure_text: Effective concentration of RFV derivatives: iPS cell growth in medium refrigerated for 2 weeks
- Type: cell-based
- Parameters: key: X; not grown; ◯; cell grown
- applied_conditions: 2.57 μM (437 mol % vs DMEM/F-12); Fe2+ and Zn2+ 25 mol %; TeSR2 supplement; medium refrigerated 2 weeks
Where a name gives a salt, the structure may show the parent alone.
property_measured: cell growth

CCCC(=O)OC[C@@H](OC(=O)CCC)[C@@H](OC(=O)CCC)[C@H](Cn1c2nc(=O)[nH]c(=O)c-2nc2cc(C)c(C)cc21)OC(=O)CCC [RTB, Riboflavin Tetrabutyrate] | X
Cc1cc2nc3c(=O)[nH]c(=O)nc-3n(C[C@H](O)[C@H](O)[C@H](O)CO)c2cc1C [RFV, riboflavin] | X
Cc1cc2nc3c(=O)[nH]c(=O)nc-3n(C[C@H](O)[C@H](O)[C@H](O)COP(=O)(O)OP(=O)(O)OC[C@H]3O[C@@H](n4cnc5c(N)ncnc54)[C@H](O)[C@@H]3O)c2cc1C [FAD, Disodium Salt Hydrate] | ◯
Cc1cc2nc3c(=O)[nH]c(=O)nc-3n(C[C@H](O)[C@H](O)[C@H](O)COP(=O)(O)O)c2cc1C [FMN, Riboflavin 5′-Monophosphate Sodium Salt] | ◯
